Observed Property: melting point

These solved cases illustrate the format of a correct answer.
# Compound, melting point
measured = [
    ("Cc1cccc(-c2nccc(Cl)n2)c1", "74 to 75 °C"),
    ("OC(CSC1CCCCC1)CSC1CCCCC1", "85.5 to 88.5 °C"),
    ("COC(=O)c1cc(N2C(=O)CCC2=O)c(Cl)c(S(N)(=O)=O)c1", "195 to 196 °C"),
    ("CCOC(=O)C1=C(C)NC(=S)N(C(=O)OCC)C1c1cccc(C(F)(F)F)c1 (stereo unspecified)", "98 to 100 °C"),
    ("COc1cccc(C=CC(=O)N2CCNCC2)c1", "84 to 86 °C"),
]

Fill in: melting point of COc1ccc(N=Nc2ccc(O)c(C(=O)Nc3ccc(OC)c(-c4nn(C(C)=O)c5cc(C)nn45)c3)c2)cc1 is ___ 282 to 283 °C

// lookup melting point for Cc1cc2c(s1)CCCC1CC(=O)N(c3ccc(Cl)cc3)N=C21 (stereo unspecified) 119 to 121 °C

Consider the compound shown here: N#Cc1ccccc1-c1cccc(-n2cnc3cc(-c4cnco4)ccc32)c1 What is its recorded melting point? 222 to 226 °C

Item Cc1cc(C)c(CN2CCN(C)CC2)c(C)c1C=O has what recorded melting point? 90 °C

Query (compound): Nc1cc(Oc2ccccc2)c([N+](=O)[O-])cc1Cl ; field requested: melting point 122 to 124 °C

Suppose we examine the compound N#Cc1ccc(CCC(N)=O)cc1 ; what melting point value has been reported? 220 °C

Tell me the measured melting point of CCOc1cc(-c2cc(C(F)(F)F)n3ncc(C(=O)Nc4cccc(S(=O)(=O)NC(C)(C)CO)c4)c3n2)ccc1C(F)(F)F , please. 268 °C

Return reported melting point; argument: CCc1scc2c1CN(S(=O)(=O)c1ccc(C)cc1)C2 117 to 120 °C
